B1: mRNA-splicing (parent)
chain: GAUCCAGAUCUAACUUGGGGUGGCUUUGUCUUCUUCUUUUGCCAAUUCCACUAAUUGUUUGGG

Variants of: B1
measurementNotes: exon inclusion enrichment score (log2 ratio to wild type); higher = more inclusion; FAS exon 6 minigene, HEK293
I would appreciate it if you labelled entries Yes when exon inclusion enrichment score is 0.1 or higher, otherwise No.

> print(dat)
   residuechange  grouplabel
1           U32C          No
2            U3A          No
3           G20C          No
4           C36U          No
5           G22A          No

Quick check: does U21A have exon inclusion enrichment score greater than or equal to 0.1?
Yes

Quick check: does U60A have exon inclusion enrichment score greater than or equal to 0.1?
No

Data credit: the RNAGym collection of RNA variant scans (doi:10.1038/ncomms11558)
